- Test system: DU-145 prostate
- assay.explanation: NCI tumour cell line growth inhibition, 48 h
measured.endpoint: TGI

In [3]: df
Out[3]:
                                   molecule     value
0  CC(C)(C)NC1C2CCC(C)(C1O)C2(C)C (stereo not given)  > 100 µM
1  COC(=O)C1CCC(=O)N1C(c1ccc2c(c1)OCO2)c1ccc2c(c1)OCO2 (stereo not given)  > 100 µM
2          CCN(CC)C1=Nc2ccccc2-n2c(C)cnc2C1  > 100 µM
3  COc1cc(NC(N)=NCCC(C)(C)c2ccc(C(F)(F)F)cc2)ncc1C#N   3.51 µM
4  CCCCP(CCCC)(CCCC)=C(C(=O)OC)C(C(=O)OC)=C1SC(C(=O)OC)=C(C(=O)OC)S1  > 100 µM
5     CC(=O)OCc1cn(S(=O)(=O)c2ccc(C)cc2)cn1  > 100 µM
6  CC(=O)OCC1OC(n2c(-c3ccccc3)c(C)c(C)c(C#N)c2=S)C(OC(C)=O)C(OC(C)=O)C1OC(C)=O (stereo not given)  > 100 µM
7  CCCN1CCN(c2ccc3nc(-c4ccc5nc(-c6ccc(OCC)c(OCC)c6)[nH]c5c4)[nH]c3c2)CC1   1.75 µM
8  c1ccc2c(c1)C(=Nc1ccc(N=C3c4ccccc4-c4ccccc43)cc1)c1ccccc1-2  > 100 µM
9  CCCCCCCC/C=C/CCCCCCCC1CC(O)C(=O)O1 (stereo not given)  > 100 µM
